# Test system: MS2 coat protein
# assay procedure: apparent Kd, MS2 coat protein; higher = weaker binding; RNA-MaP array; FMN 200 µM where present
# measurement setup: ligand present: flavin mononucleotide; designed as: OFF switch for flavin mononucleotide
Label rule met when apparent Kd >= 40 nM; otherwise rule not met.

Hello, I need to know if GGUACUCAAAGAGUACCAAUACGAACAUGAGGAUCACCCAUGUAGGAUAUGCUACUCAAAGAGUAGCAGAAGGACAUGUGCUUU has measured apparent Kd not below 40 nM. Thanks!
rule met

And the next one, AUUGUUCGAGAGAAGGGAACAUGAGGAUCACCCAUGUUACCUCACCUGGUGACGGAACUCCAAGUUCAGGAUAUCUCGAGCGAU ?
rule not met

# iterate: AUUCGACAUGAGGAUCACCCAUGUAAGGAUAUGAUAGUUCUGAUAAGGGCUAGCCUAUUCAGAAGGUACGUGGC
rule not met

Please give the result for UCUUAUUGCAAGGAUAUGCAAAUUAUUUUUUAAGCAGAAGGUGCAACAUGAGGAUCACCCAUGUUUCCGGGCAA too.
rule met

Subsequent entry: ACAAAGAGCCAAGGAUAUACGUCGUCGAGCCCUCCCGUAGUGGCCAGCACAUGAGGAUCACCCAUGUAGAAGGUGGCUGUAGUC
rule not met

Entry to check: AGGAGUACAGGAUAUACAUGAGGAUCACCCAUGUGAGAAUUAAGUGGCGUACCACAAAGUAGAAGGGUACUCCA
rule met

Repeat for the following sequence: ACAUGUAAUGUAGGAUAUUUUACACAUGAGGAUCACCCAUGUGACCAGAGGCUUUGCUAUGAGUAAAAGAAGGGUAUGUACAUG
rule met

----------
# System: MS2 coat protein
# assay procedure: apparent Kd, MS2 coat protein; higher = weaker binding; RNA-MaP array; FMN 200 µM where present
# measurement setup: designed as: ON switch for flavin mononucleotide; no ligand
Could you please report measured apparent Kd for the items listed next?
Please don't drop the unit; write it after the number.

Quick one: apparent Kd for GUAGCUAUUAUUAUACAUGAGGAUCACCCAUGUUACAUGUGUAAGGAUAUUGAAGUUAUUAUUAUCAAGAAGGUACUAUGCUAC ?
15.5 nM

Quick one: UUACCUCAUGAGAAGGACAUGAGGAUCACCCAUGUAGGAUAUCGUGGGAGACUGGUAUUGAAUCUUCGGAUUCAAUACCUGUCU
454 nM

And AAAACAGCGCGUCCCGCGCCAACUACAGAAGGCCAACAUGAGGAUCACCCAUGUACAAACUAGAUGGAGGAUAUGUAGGUUCUA ?
6.35 nM

Try the sequence UUGCGCUGUCGAGAGGAUAUGCGGUGUUGGACAUGAGGAUCACCCAUGUUAGCGAUUGCUUUACGGUAGAAGGCUCUUCAGCUGC
78.8 nM

Same for UUGCCUCAGAACAUGAGGAUCACCCAUGUGCUGCGGGCAACGUAGGAUAUGAUGGUGCAACACCAUCAGAAGGAUGAUGGUACC
5.62 nM

Same for ACAUGAGGAUCACCCAUGUUCACAUAGGAUAUUGAUUAUAUUGGUUUAAGAAUAGUAAUUGACCACAAGAAGGAUGCCUGAUCU
12.2 nM

Next entry: GGAUCCAACACAGGAUAUGCUGGACUUUGUCCAGCAGAAGGGUGAAGAACAUGAGGAUCACCCAUGUGGAUCCAUAUAUUUUAU
262 nM

Do the same for GAGGCACAUGAGGAUCACCCAUGUGGGUAUAACAUAGGAUAUCACCAACAAAAUACCCGGUGAGAAGGAUGAUGCC please
217 nM

Another sequence to check: CGGCGCUGUUGAGAGGAUAUGCGGUGAUGGACAUGAGGAUCACCCAUGUUAGCGAUAGCAUUACGGUAGAAGGCUCUACAGCUGC
17.9 nM

Next: AGGGUAUGAACAUGAGGAUCACCCAUGUAAACGGAAACGAAUGAGGAUAUCGAUAGCAAAGCUAUCGAGAAGGCAUGGGACCCU
286 nM

Please answer likewise for UAAUAAUUAAGAGGAUAUAUACAACAUGAGGAUCACCCAUGUACCCAUGUAGUAGAAGGCUUAUUUUUAUUUAAUAAUAUAAUU
122 nM

What do you get for GCAACGCCUGACAUGAGGAUCACCCAUGUUAGAUUGUUAUGUCAGGAUAUAGUCUAGAAACUAGACUAGAAGGGAUAUGUUGCU ?
1010 nM

----------
# Test system: MS2 coat protein
# assay procedure: apparent Kd, MS2 coat protein; higher = weaker binding; RNA-MaP array; FMN 200 µM where present
# measurement setup: designed as: OFF switch for flavin mononucleotide; no ligand
What apparent Kd was measured for each of the following?
# output: bare number, implied unit µM

// lookup apparent Kd for AAUGAGUUUCUCACACUGUUCACAUGAGGAUCACCCAUGUACAGAAGGUAGAGACUUCCGGUCGCUAAGGAUAUGUAGAGGGUC
0.00505

Another sequence to check: UGAUUUCAUGUAGGAUAUGCUUGGCGUAGCUACGCAGAAGGACAUGAGGAUCACCCAUGUUUUAGCGUCUGAGUAUAGAUUCUU
0.0353

How about this sequence: GCUGGGUCAGGAUAUACAAGAUCGAAAGAUCAAAGAUUCGUACAUGAGGAUCACCCAUGUAGAAGGGACUGGGC
0.0234

Lookup ACGACUAGAGGAUAUACAUGAGGAUCACCCAUGUAACUGUCAGGAGACUGACGGAGAUGUAGAAGGCUAGUCGA
0.0166

Request: UAUAUUUAUGUAGGAUAUGGUCUAUAAAAUAGACCAGAAGGACAUGAGGAUCACCCAUGUAUGAAAUUCCAUAAUUGCCGUGUA
0.0114

CACGUCAGGAAACGGAGCGGCCAACAUGAGGAUCACCCAUGUGAGGAUAUGCCUACUAAAAGUAGGCAGAAGGCACAGAAGGCA ?
0.0382

Please answer likewise for GCUAGAGCAGGAUAUCUAGAUCCACACAUGAGGAUCACCCAUGUACAGUCGAAAGACUGAAGAGAAGGGCUCUAGC
0.0697

What about GUCAGCUCGUGAGGAUAUACAUGUGCUGGAGACAGCACUAUUAAGUUCACAUGAGGAUCACCCAUGUAGAAGGCACGAGCUGAU ?
0.0159

# iterate: CGAGCUGCUGUGAGGAUAUACCUAUGGAUGCGUGGGUAGAAGGCACAUGAGGAUCACCCAUGUCCUGCAGCUCG
0.0421

Request: GUCAGCUCGUGAGGAUAUACAACACUGCUUCGGCAGUCUAUUAAGAUCACAUGAGGAUCACCCAUGUAGAAGGCACGAGCUGAU
0.0149

Would you kindly repeat that for CGCUGGUGAGGAUAUGGGUGUGGUUACAUGAGGAUCACCCAUGUGGUGUCGCGCGUGGGUCCAGAAGGCGCGGGUG ?
0.246

How about UUUAUACAUGAGGAUCACCCAUGUUAGGAUAUGGCUUUAAUGCCGCCGUCAUUAUCCGCCAGAAGGGACGUGUC ?
0.0322

Record: GGAUAGGACAGAGGAUAUACGUGCUAGAGAUACUAGCAAGAUUUCCUCACAUGAGGAUCACCCAUGUAGAAGGCUGUCCUAUCG
0.0132

----------
# System: MS2 coat protein
# assay procedure: apparent Kd, MS2 coat protein; higher = weaker binding; RNA-MaP array; FMN 200 µM where present
# measurement setup: ligand present: flavin mononucleotide; designed as: OFF switch for flavin mononucleotide
Please provide measured apparent Kd for the entries that follow.
# value in nM; strip the unit string

Recorded apparent Kd of AGCCUGCUGCGAGGAUAUCAACUAAAGGGUCCGAUUUCCGAGCGGAACAUGAGGAUCACCCAUGUUGAGAAGGCGCGAGUAUAG , please.
182

Query UUGUUACAUGAGGAUCACCCAUGUGAGGAUAUGGUUCGGUACUGUCCUGUCGCGUACUCCAGAAGGCACGUGUU next
37.4

Next entry: CGCUAGUCAGGAUAUACGCACAUGUCACCAGACGUGAAGGGACAUGAGGAUCACCCAUGUAGAAGGGACUAGCA
203

One more sequence: AAACAGGCAGGAUAUACAUGAGGAUCACCCAUGUGCAUAAACUGGCUGCGUCCGAAUCGUAGAAGGGCCUGCAU
126

----------
Provide the recorded apparent Kd for the entries that follow.
# Tested on: MS2 coat protein
# assay procedure: apparent Kd, MS2 coat protein; higher = weaker binding; RNA-MaP array; FMN 200 µM where present
# measurement setup: ligand present: flavin mononucleotide; designed as: OFF switch for flavin mononucleotide
Could you give me the number in nM? Just the number is fine.

// apparent Kd lookup, key: AGGGUGUCGCUCAAUAACAUGAGGAUCACCCAUGUGCAUUAGAGAAGGGACCCGGGCGCGUGGAGUCAGGAUAUCUAUCUGCCA
30

And what about the sequence UUUUAUAAUACCUCAUGUACAUGAGGAUCACCCAUGUUAACUAAGGAUAUAUAUAAAUUAAUAAUGUAGAAGGUAGUAAUAUUU ?
14.3

What about GCUCGGAGAGGAUAUACAUGAGGAUCACCCAUGUAGGUAAGCAGCGAUGGCAGUCCAUGUAGAAGGUUCAGGUG ?
49.7

Param item: CACGUCAGGAAACGGAGCGGCCAACAUGAGGAUCACCCAUGUGAGGAUAUGCCUACUAAAAGUAGGCAGAAGGCACAGAAGGCA
160

Further, for CUCAUGUAAGGAUAUCAGUAGUAAAAAAAUAAAAUUACUACUGAGAAGGUACAUGAGGAUCACCCAUGUCCUGG ?
17.9

How about this sequence: GUAGUUAGUAGAGGAUAUUAGUAUGUGUAAUAUUGAGAAGGUUACAUGAGGAUCACCCAUGUGAUCAAUCACUGUUAAGGUUGC
6.71

Entry to check: CCGGAAAUACAGGAUAUAGGAGUCAAUAGACUCCUAGAAGGGUAUACAUGAGGAUCACCCAUGUGUCCUACCGG
35.6
